Experiment: small-molecule microarray binders of probe aXIP, primary screen, biochemical, NeuroSMM set, 635/667 nm fluorescence (AID 1119);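 also: probe is the protein aXip251-270 applied at 1 µg/mL to compound-printed slides; binding of probe to printed compounds measured as 667 nm fluorescence plus signal to noise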
Conditions: higher = more signal, called active from +8 up or from −8 down
Assign Y whenever composite Z-score does not fall below 0.1; assign N whenever it does.

CN(C)C(=O)[C@@]1(CCS(=O)(=O)c2ccccc2)COC(c2ccc(OCCCO)cc2)=N1 = Y

Exercise: # check: composite Z-score of CC(C)NC(=O)[C@@H]1c2ccccc2C(=O)N(C2Cc3ccccc3C2)[C@H]1c1ccc(CO)cc1 is greater than or equal to 0.1
Key: Y

Exercise: Is composite Z-score for COc1cc2c(cc1OC)CN(C(=O)[C@@H]1[C@H]3C(=O)O[C@H](c4ccccc4)[C@H](c4ccccc4)N3[C@H](c3ccccc3OCCO)[C@@]13C(=O)Nc1ccc(C#CCCO)cc13)CC2 at or above 0.1?
Key: Y

Exercise: Hello, I need to know if C[C@H]1NC(=O)[C@@]23C(=O)N[C@@H](Cc4ccccc4)C2[C@H](C)[C@@]2(C)O[C@H]2C3/C=C/C/C=C\CNC(=O)[C@@H]2CCCN2C1=O (stereo partly drawn) has measured composite Z-score not below 0.1. Thanks!
Key: Y

Exercise: Is the recorded value of composite Z-score equal to or greater than 0.1 for this compound? COc1ccc([Si](C)(C)[C@H]2[C@H](CCO)O[C@@]3(C(=O)N(Cc4ccc(N(C=O)c5ccccc5)cc4)c4ccccc43)[C@@H]2C)cc1
Key: N

Exercise: Decide: composite Z-score of COC(=O)C(CC#Cc1ccc2c(c1)[C@]1(C(=O)N2)[C@H](C(=O)Nc2nc3ccccc3s2)[C@H]2C(=O)O[C@H](c3ccccc3)[C@H](c3ccccc3)N2[C@@H]1c1ccc(O)cc1)C(=O)OC >= 0.1?
Key: Y

Exercise: Form field: composite Z-score at least 0.1? Entry: C=CC[C@@]12N=C(c3ccc(OCCCO)cc3)O[C@@H]1c1ccccc1N(C)C2=O
Key: N

Exercise: Decide: composite Z-score of COC(=O)[C@@]1(Cc2ccc(OC)cc2)[C@H]2c3cc(C(=O)N4CCCC4)n(Cc4ccc(C)c(F)c4F)c3C[C@H]2CN1C(=O)c1ccccc1 >= 0.1?
Key: N

Exercise: Say whether Cc1ccc(S[C@]2(C(=O)O)CC(=O)N(C(C)C)[C@@H]2c2ccc(CO)cc2I)cc1 shows composite Z-score of 0.1 or more.
Key: Y

Exercise: Does the reported composite Z-score for COC(=O)C(CC#Cc1ccc2c(c1)[C@]1(C(=O)N2)[C@H](C(=O)Nc2nc3ccccc3s2)[C@H]2C(=O)O[C@H](c3ccccc3)[C@H](c3ccccc3)N2[C@@H]1c1ccccc1OCCO)C(=O)OC fall at or above the 0.1 mark?
Key: N

Exercise: Does [N-]=[N+]=NCc1ccccc1[C@@H]1OC(c2ccc(OCCCO)cc2)=N[C@]1(Cc1ccccc1)C(N)=O have a reported composite Z-score of at least 0.1?
Key: N

Exercise: Check this compound for composite Z-score at or above 0.1: CC(=O)NCCCC[C@@H]1NC(=O)[C@H]2C[C@@H](C(=O)NCCCCCCNC(=O)CS)[C@@H](c3ccc(O)cc3)N2C1=O
Key: Y

Exercise: Assess whether reported composite Z-score for COC(=O)[C@H](Cc1ccccc1)N1CC2=C[C@@H](C3CC3)n3c(=O)n(C)c(=O)n3[C@H]2[C@@H]1[C@@H](O)Cc1ccccc1 sits at 0.1 or higher.
Key: Y

----------
Recorded measurements of z-score, one per entry
Assay: FRG1 promoter luciferase signal modulators, primary screen, FRG1 inhibition for FSHD, cell-based, C2C12 myotubes, firefly/Renilla luciferase, luminescence (AID 1084)
Settings: higher = more signal, called active from +8 up or from −8 down
// no unit string in output, number only

CN(C)CCCCCCNC(=O)[C@H]1C[C@H]2C(=O)N[C@@H](CCCCN)C(=O)N2[C@H]1c1cccc(OCCO)c1 = 3.88

Exercise: I am curious: what z-score value has been reported for CC(C)C(=C=CC[C@H](O)c1ccc(OCCO)cc1)CCO ?
Key: 0.305

Exercise: Endpoint output: z-score of O=C(CS)NCCCCCCNC(=O)[C@@H]1C[C@@H]2C(=O)NCC(=O)N2[C@@H]1c1cccc(OCCO)c1 . Value?
Key: 0.688

Exercise: Look up z-score for this molecule: C=C(/C(=C/C[C@H](OC(C)=O)c1ccccc1OCCO)c1cnc2ccccc2c1)C(C)C
Key: -0.607

Exercise: What z-score value was documented for this molecule, O=C(c1ccccc1)N1Cc2ccccc2C[C@@]2(COC(c3ccc(OCCCO)cc3)=N2)C1=O ?
Key: -0.187

----------
Biological target: Carbonic anhydrase 2 (Homo sapiens) (UniProt P00918)
Assay: CAII small-molecule binders, profiling panel, biochemical, small-molecule microarray, Alexa647-labelled CAII (AID 1122)
Conditions: CAII-A647 binding fluorescence, higher = more signal
Test readout: composite z-score
Give the value as a plain number.

[N-]=[N+]=Nc1ccccc1[C@@H]1OC(c2ccc(OCCCO)cc2)=N[C@]1(CCS(=O)(=O)c1ccccc1)C(N)=O = 0.438
CCOC(=O)C1=C[C@@H](C(C)(C)C)N(S(=O)(=O)c2ccc(C)cc2)[C@H]1c1ccc(F)cc1 = 0.287

Exercise: Which composite z-score is listed for COCCOC(=O)N1C(=O)[C@@]2(c3cc(C#CCC(C(=O)OC)C(=O)OC)ccc31)[C@H](C(=O)Nc1nc3ccccc3s1)[C@H]1C(=O)O[C@H](c3ccccc3)[C@H](c3ccccc3)N1[C@@H]2c1ccccc1OCCO ?
Key: 0.559

----------
Test: osmotic lysis modulators in infected erythrocytes, primary screen, PSAC antagonist project, cell-based, P. falciparum Indochina, OD700, 3 h (AID 1156)
Conditions: higher = more signal, called active from +8 up or from −8 down
Label scheme for z-score: lower than 0.3 is not met, 0.3 and above is met.

[N-]=[N+]=NCc1ccccc1[C@@H]1OC(c2ccc(OCCCO)cc2)=N[C@]1(Cc1ccccc1)C(N)=O = met

Exercise: Reported z-score reaches at least 0.3 for NC(=O)NCC#Cc1ccc2c(c1)[C@]1(C(=O)N2)[C@H](c2ccc(O)cc2)N2[C@H](c3ccccc3)[C@H](c3ccccc3)OC(=O)[C@H]2[C@@H]1C(=O)O ?
Key: not met

Exercise: Determine whether this compound has z-score no lower than 0.3: O=C(c1ccccc1)N1C(=O)[C@]2(COC(c3ccc(OCCCO)cc3)=N2)Cc2ccccc21
Key: met

Exercise: Decide: is the reported value of z-score for COc1ccc(C#Cc2ccc3c(c2)[C@]2(C(=O)N3)[C@H](C(=O)NC[C@H](O)c3ccccc3)[C@H]3C(=O)O[C@H](c4ccccc4)[C@H](c4ccccc4)N3[C@@H]2c2ccc(O)cc2)cc1 equal to or greater than 0.3?
Key: not met

Exercise: Dear colleague, could you confirm whether CCOC(=O)C[C@H]1[C@H](OC(=O)c2cc3ccccc3oc2=O)[C@@H](NC(=O)c2ccccc2)c2cc(OCCCO)ccc2N1C(=O)c1ccc2ccccc2n1 has z-score at or above 0.3?
Key: met

Exercise: Check this compound for z-score at or above 0.3: NC(=O)N1C(=O)C2C(C1=O)C1C=C(c3ccc(CO)cc3)C2C(c2cccs2)N1Cc1cccc(OC(F)(F)F)c1 (stereo unspecified)
Key: not met

----------
List of z-score values.
Assay: HepG2 liver cancer cell viability effects, profiling panel, resazurin fluorescence, 24 h, PK04 Diversity Set (AID 1172); also: test concentration not given here
Conditions: higher = more signal
Please give only the number in your answer, with no unit.

O=C(NCCO)C1=C[C@H](Oc2ccccc2I)[C@@H](O)[C@H](N(Cc2ccco2)C(=O)Cc2ccccc2)C1 = -1.23
CC(C)c1ccc(NN2C(C(O)c3ccc(B(O)O)cc3)C=CC3C(=O)N(c4ccccc4)C(=O)C32)cc1 (configuration not stated) = -1.18
CC1(C)C2C=C(C(O)C3C=CC4C(=O)NC(=O)C4N3Nc3ccc(Cl)cc3Cl)C[C@@H]1C2 (some centres not stated) = -2.13

Exercise: Would you kindly share the measured z-score for CC(=O)NCCCC[C@@H]1NC(=O)[C@@H]2C[C@H](C(=O)NCCCCCNC(=O)CS)[C@H](c3cccc(OCCO)c3)N2C1=O ?
Key: 0.77

Exercise: Please give the measured z-score for this compound: [N-]=[N+]=NCc1ccccc1C[C@]1(C(N)=O)COC(c2ccc(OCCCO)cc2)=N1
Key: 0.252

Exercise: Using the record for COC(=O)C(CC#Cc1ccc2c(c1)[C@]1(C(=O)N2)[C@H](c2ccc(OCCO)cc2)N2[C@H](c3ccccc3)[C@H](c3ccccc3)OC(=O)[C@H]2[C@@H]1C(=O)Nc1nc2ccccc2s1)C(=O)OC , report its z-score.
Key: 1.51

Exercise: Which z-score is reported for this compound? O=C1C2C=CC(C(O)c3cc(C(F)(F)F)cc(C(F)(F)F)c3)N(n3cnnc3)C2C(=O)N1Cc1ccccc1 (configuration not stated)
Key: -0.064
